The measurements presented in this section are drawn from PubChem BioAssay (EPA / NIEHS).

assay: CCTE_Shafer_MEA_acute_per_network_burst_spike_number_std: CCTE's Neural Acute Assay for Standard Deviation of Number of Spikes in a Network Burst, Shafer Lab (AID 2284020);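 also: fitted for decrease in spike-number SD versus DMSO so actives lower it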
The source made the active and inactive calls. The calls were made as follows: active = hit-call score of the fitted dose curve at least 0.9, where 1 is the maximum; inactive = score below 0.9.
Output constraint: value belongs to active, inactive

Look over these answered cases.
molecule: COP(=S)(OC)Oc1nc(Cl)c(Cl)cc1Cl
group_label: active

molecule: CCCN(CCC)c1c([N+](=O)[O-])cc(S(N)(=O)=O)cc1[N+](=O)[O-]
group_label: inactive

molecule: CC(Oc1ccc(Cl)cc1Cl)C(=O)O (stereo not given)
group_label: inactive

molecule: N#Cc1nn(-c2c(Cl)cc(C(F)(F)F)cc2Cl)c(N)c1S(=O)C(F)(F)F (stereo not given)
group_label: inactive

Alright, here's another molecule for you.
Q. Check the results log: what was the call for O=C(O)c1nc(Cl)ccc1Cl ?
A. inactive
